assay: Biochemical counterscreen for C difficile toxins, absence of UDPG, inhibitor dose response (AID 720650)
details: series mostly up to 19.5 µM
The source made the active and inactive calls. No rule for the calls is given here.
Classes used: Y for active, N for inactive

>  <compound>
C[C@@H]1C=C[C@](Cc2ccccc2)(C(=O)NCC2CC2)N1C(=O)c1ccccc1

>  <categoryLabel>
N

$$$$
>  <compound>
CC(=O)Nc1n[nH]c(=S)s1

>  <categoryLabel>
N

$$$$
>  <compound>
COc1ccccc1C1=NNC(=NCc2ccccc2)SC1

>  <categoryLabel>
N

$$$$
>  <compound>
Oc1ccc(CCNc2ncnc3ccc(Cl)cc23)cc1

>  <categoryLabel>
Y

$$$$
>  <compound>
O=c1c2ccccc2nc(/C=C/c2ccc(O)cc2)n1-c1ccccc1O

>  <categoryLabel>
N

$$$$
>  <compound>
NC1=NC[C@H](Cc2ccc(O)cc2)N1CCc1cc(C(F)(F)F)cc(C(F)(F)F)c1

>  <categoryLabel>
N

$$$$
>  <compound>
S=c1[nH]nc(-c2ccccn2)n1/N=C/c1ccc(Cl)cc1

>  <categoryLabel>
N

$$$$
>  <compound>
COc1cc(Cn2nnc3ccccc32)ccc1O

>  <categoryLabel>
Y

$$$$
>  <compound>
Cc1ccc(/C=N/NC(=O)c2cccc(S(=O)(=O)Nc3ccccc3Cl)c2)o1

>  <categoryLabel>
N

$$$$
>  <compound>
COc1ccc(Cl)cc1NC(=O)CN(C)C(=O)c1cc2c(s1)CCCC2

>  <categoryLabel>
N

$$$$
>  <compound>
Cc1ccc(Cc2c(-c3ccc(C)cc3)nc3ccc(Cl)cn23)cc1

>  <categoryLabel>
N

$$$$
>  <compound>
O=C(CSc1cccc2cccnc12)N/N=C/c1ccc(O)cc1

>  <categoryLabel>
Y

$$$$
>  <compound>
COC(=O)/C=C/C(=O)Nc1ccc(O)c(Cl)c1

>  <categoryLabel>
Y

$$$$
>  <compound>
CCOC(=O)c1sc(=S)[nH]c1C

>  <categoryLabel>
N

$$$$
>  <compound>
O=C(CSc1nc2ccccc2[nH]1)NC1CCCc2ccccc21 (centres undefined)

>  <categoryLabel>
N

$$$$
>  <compound>
CC(C)NC(=O)N1CC[C@@H]2[C@H]1c1cc(-c3ccccc3)ccc1N(C)[C@H]2CO

>  <categoryLabel>
Y

$$$$
>  <compound>
Cc1cccc(OCCC(=O)NCC(=O)Nc2cccc(C)c2C)c1

>  <categoryLabel>
Y

$$$$
>  <compound>
CCOc1ccc2ccccc2c1/C=N/NC(=O)c1ccncc1

>  <categoryLabel>
N

$$$$
>  <compound>
CC(C)CC(=O)N1CCN(Cc2ccc(Br)cc2)CC1

>  <categoryLabel>
N

$$$$
>  <compound>
COc1ccc(NC(=O)Nc2nc(C)cc(C)n2)c(OC)c1

>  <categoryLabel>
N

$$$$
>  <compound>
Cc1cc(N2CCCC2=O)cc(C)c1S(=O)(=O)Nc1c(C)nn(C)c1C

>  <categoryLabel>
N

$$$$
>  <compound>
Cc1cccc(-c2n[nH]c(=S)n2/N=C/C=C/c2ccco2)c1

>  <categoryLabel>
N

$$$$
>  <compound>
CC(Oc1ccc(Cl)cc1Cl)C(=O)Nc1ccc(O)cc1 (centres undefined)

>  <categoryLabel>
Y

$$$$
>  <compound>
CCCCCCCN1C(N(C)C)=NC[C@@H]1Cc1ccccc1

>  <categoryLabel>
N

$$$$
>  <compound>
Cc1ccc(S(=O)(=O)Nc2cccnc2Oc2ccc(Cl)cc2)cc1

>  <categoryLabel>
N

$$$$
>  <compound>
Cc1cccc(/C=C/c2onc(C)c2S(=O)(=O)N2CCC(C(=O)NC(C)C)CC2)c1

>  <categoryLabel>
N

$$$$
>  <compound>
O=C(CSc1nc2cc(Cl)ccc2s1)c1ccco1

>  <categoryLabel>
N

$$$$
>  <compound>
CCCCn1c(-c2ccccc2C)nc2cc3[nH]c(=O)c(C(C)C)nc3cc21

>  <categoryLabel>
N

$$$$
>  <compound>
CC(OC(=O)C1=COCCO1)C(=O)c1ccc(Br)cc1 (centres undefined)

>  <categoryLabel>
N

$$$$
>  <compound>
CCOC(=O)/C(=N/Nc1ccc(Br)cc1)N1CC(C)OC(C)C1 (centres undefined)

>  <categoryLabel>
Y

$$$$
>  <compound>
COc1cccc(C(=O)C2CCCN(Cc3ccc(F)cc3)C2)c1 (centres undefined)

>  <categoryLabel>
N

$$$$
>  <compound>
CC1CC(=O)N(c2ccc(NCCc3ccc(O)cc3)c([N+](=O)[O-])c2)C1=O (centres undefined)

>  <categoryLabel>
N

$$$$
>  <compound>
O=C(O)c1ccc(-c2nnc(-c3ccccc3)o2)cc1

>  <categoryLabel>
N

$$$$
>  <compound>
COC(=O)C(Cc1ccccc1)NC(=O)CSc1nc(C)cc(=O)[nH]1 (centres undefined)

>  <categoryLabel>
N

$$$$
